test: Primary qHTS for inhibitors of nuclear receptor binding SET domain protein 2 (NSD2) in an isogenic RCH-ACV NSD2 p.E1099K mutant (9B) (AID 1645876); conditions: RCH-ACV (leukaemia line) NSD2 E1099K (9B) viability, CellTiter-Glo, 72 h; series mostly up to 44.9 µM; also: % is scaled to controls: 0 for no effect and ±100 for the full control effect; nearly all actives have a fitted effect of over 70% in size
Results filed as inconclusive are left out. Activity calls are given as the source filed them. Calls follow the shape of the dose curve; as a rule, active = well fitted inhibition curve with a large enough effect; inconclusive = small, poorly fitted or top-dose-only effect; inactive = flat fitted curve, though single readings scatter.
Measurement Type: activity change, negative = viability loss

Compound	Reported
C[C@@H]1O[C@@H](O[C@H]2[C@H](OC(=O)[C@]34CCC(C)(C)C[C@H]3C3=CCC5[C@@]6(C)CC[C@H](O[C@@H]7O[C@H](C(=O)O)[C@@H](O)[C@H](O)[C@H]7O[C@@H]7O[C@H](CO)[C@H](O)[C@H](O)[C@H]7O)[C@@](C)(C=O)C6CC[C@@]5(C)[C@]3(C)C[C@H]4O)O[C@H](C)[C@H](O[C@@H]3O[C@H](C)[C@H](O)[C@H](O)[C@H]3O)[C@@H]2O)[C@H](O)[C@H](O)[C@H]1O[C@@H]1OC[C@@H](O)[C@H](O[C@@H]2O[C@H](CO)[C@@H](O)[C@H](O)[C@H]2O)[C@H]1O (stereo partly specified)	-94% [at 4.96 µM] (inactive)

stdin: Reported activity change, negative = viability loss for CC1(C)CC[C@]2(C(=O)O[C@@H]3O[C@H](CO)[C@@H](O)[C@H](O)[C@H]3O)CC[C@]3(C)C(=CCC4[C@@]5(C)CC[C@H](O[C@@H]6O[C@H](C(=O)O)[C@@H](O)[C@H](O)[C@H]6O)C(C)(C)C5CC[C@]43C)C2C1 (stereo partly specified) : what is it?
stdout: -3.82% [at 9.23 µM] (inactive)

stdin: Next entry: CC1(C)CC[C@]2(C(=O)O)[C@H](O)C[C@]3(C)C(=CCC4[C@@]5(C)CC[C@H](O[C@@H]6O[C@H](CO[C@@H]7OC[C@H](O)[C@H](O)[C@H]7O[C@@H]7OC[C@@H](O)[C@H](O)[C@H]7O)[C@@H](O)[C@H](O)[C@H]6O[C@@H]6O[C@H](CO)[C@@H](O)[C@H](O)[C@H]6O)C(C)(C)C5CC[C@]43C)[C@@H]2C1 (stereo partly specified)
stdout: -4.67% [at 9.23 µM] (inactive)

stdin: Next entry: C[C@@H]1O[C@@H](O[C@@H]2[C@@H](O)[C@H](O[C@H]3CC[C@@]4(C)C(CC[C@]5(C)C4CC=C4[C@@H]6CC(C)(C)CC[C@]6(C(=O)O[C@@H]6O[C@H](CO)[C@@H](O)[C@H](O)[C@H]6O)CC[C@]45C)C3(C)C)O[C@H](C(=O)O)[C@H]2O)[C@H](O)[C@H](O)[C@H]1O (stereo partly specified)
stdout: -9.85% [at 9.23 µM] (inactive)

stdin: Next entry: CC1OC(OC2C(C)OC(OC3C(OC(=O)C45CCC(C)(C)CC4C4=CCC6C7(C)CCC(OC8OC(C(=O)O)C(O)C(O)C8OC8OC(CO)C(O)C(OC9OC(C)C(O)C(O)C9O)C8O)C(C)(CO)C7CCC6(C)C4(C)CC5)OC(CO)C(O)C3O)C(O)C2O)C(O)C(O)C1O (stereo unspecified)
stdout: 2.43% [at 9.23 µM] (inactive)

stdin: Next entry: CC(C)=CCC[C@](C)(O[C@@H]1O[C@H](CO[C@@H]2O[C@H](CO)[C@@H](O)[C@H](O)[C@H]2O)[C@@H](O)[C@H](O)[C@H]1O)C1CC[C@]2(C)[C@@H]1[C@H](O)CC1[C@@]3(C)CC[C@H](O[C@@H]4O[C@H](CO)[C@@H](O)[C@H](O)[C@H]4O[C@@H]4O[C@H](CO)[C@@H](O)[C@H](O)[C@H]4O)C(C)(C)[C@@H]3CC[C@]12C (stereo partly specified)
stdout: -10.6% [at 9.23 µM] (inactive)

---

tested on: Nanoluciferase (engineered Oplophorus gracilirostris luciferase); experiment: Primary Nanoluciferase (NLuc) qHTS assay for identification of artifact compounds. (AID 1845222); conditions: NLuc-conditioned medium, Nano-Glo luminescence, 5 min; series mostly up to 54.1 µM;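 also: NLuc secreted into diluted conditioned medium of S16 cells; 0% = DMSO and -100% = no enzyme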
Calls of active or inactive are those of the source. Calls follow the shape of the dose curve; as a rule, active = well fitted inhibition curve with a large enough effect; inconclusive = small, poorly fitted or top-dose-only effect; inactive = flat fitted curve, though single readings scatter.
Measurement Type: activity, negative = inhibition

Examples with answers:
> print(dat)
                                   compound                 measurement.type                        reported
1  O=C1CCC(c2ccccc2)(C2CCN(Cc3ccc(I)cc3)CC2)C(=O)N1 (stereo not drawn)  activity, negative = inhibition                        inactive
2               Cc1cccc(Oc2cnc(=O)[nH]c2)c1  activity, negative = inhibition                        inactive
3  COCCOc1cnc2ccn([C@H](C)c3nnc4c(F)cc(-c5cnn(C)c5)cn34)c(=O)c2c1  activity, negative = inhibition                        inactive
4  C/C1=C\CC[C@H](C)CCO[C@@H]2O[C@H](CO[C@@H]3OC[C@](O)(COC1=O)[C@H]3O)[C@@H](O)[C@H](O)[C@H]2O  activity, negative = inhibition                        inactive
5  CC(=O)N[C@@H](CCCCN)C(=O)N(C)[C@@H](CC(C)C)C(=O)N[C@H](C(=O)N(C)[C@@H](Cc1ccccc1)C(=O)N[C@H](Cc1ccccc1)C(N)=O)C(C)C  activity, negative = inhibition   2.14% [at 6.45 µM] (inactive)
6  O=S(=O)(Nc1ccccn1)c1ccc(N=Cc2c(O)[nH]c3ccc4ncsc4c23)cc1  activity, negative = inhibition  -7.47% [at 11.6 µM] (inactive)

stdin: Reported activity, negative = inhibition for CC(C)=C/C=C\[C@H](C)[C@H]1CC[C@]2(C)C[C@@H]3C(C)=CC(=O)C3/C(CO)=C\C[C@@H]12 (stereo partly drawn) : what is it?
stdout: inactive

stdin: Next entry: `O=C(O)c1cn(C2CC2)c2cc(N3C[C@@H]4C[C@H]3CN4)c(F)cc2c1=O`
stdout: inactive

---

test system: Zika virus NS2B-NS3 protease (linked construct); experiment: Primary screen NINDS Rhodamine qHTS for Zika virus inhibitors (AID 1347160); settings: purified NS2B-NS3 protease, Rhodamine110 substrate fluorescence; series mostly up to 57.1 µM; also: nearly all actives have a fitted effect of over 55% in size
Inconclusive results are not listed. Activity calls are given as the source filed them. The call rests on the fitted dose curve; in most records, active means well fitted inhibition curve with a large enough effect; inconclusive means small, poorly fitted or top-dose-only effect; inactive means no such curve, though single readings can be large or run the other way.
Would you mind answering with one of these outcomes? active, inactive

Compound	Category
CCCNc1ccc2ncc(-c3ccc4[nH]ncc4c3)n2n1	inactive

stdin: Assay result, entry C=C1C(O)C[C@@H]2C(C(=O)O)=CO[C@@H](O[C@@H]3O[C@H](CO)[C@@H](O)[C@H](O)[C@H]3OC(=O)c3ccc(O)cc3)[C@H]12 (stereo partly drawn) — outcome?
stdout: inactive

stdin: Next entry: CC1=C(C(=O)OCc2ccccc2)C(c2ccc(-c3ccccc3)cc2)NC(=O)N1CCCCCC(=O)O (stereo not drawn)
stdout: active

stdin: Next entry: COC(=O)C12C(=O)C(C)=C(O)C1(C)C(C)=CC1C3(CO)CCC(O)C(C)(C)C3CCC12C (stereo not drawn)
stdout: inactive

stdin: Next entry: `COc1ccc(CCO[C@@H]2O[C@H](CO[C@@H]3OC[C@H](O)[C@H](O)[C@H]3O)[C@@H](O)[C@H](O)[C@H]2O)cc1`
stdout: inactive

stdin: Next entry: `FC(F)(F)c1cc(-c2ncn(/C=C\c3nnco3)n2)cc(C(F)(F)F)c1`
stdout: inactive

stdin: Next entry: CC(C)[N+]1(C)C2CCC1CC(OC(=O)C(CO)c1ccccc1)C2 (stereo not drawn)
stdout: inactive

stdin: Next entry: `C[C@@]1(O)[C@H](O)[C@@H](CO)O[C@H]1n1ccc(N)nc1=O`
stdout: inactive

stdin: Next entry: `OC[C@H]1O[C@@H](OCCc2ccc(O)cc2)[C@H](O[C@@H]2OC[C@](O)(CO)[C@H]2O)[C@@H](O)[C@@H]1O`
stdout: inactive

stdin: Next entry: CC1(C)CCC2(C(=O)OC3OCC(O)C(O)C3O)CCC3(C)C(=CCC4C5(C)CC(O)C(OC6OC(COC7OCC(O)C(O)C7O)C(O)C(O)C6O)C(C)(C)C5CCC43C)C2C1 (stereo not drawn)
stdout: inactive

stdin: Next entry: `CCn1c(=O)c(-c2ccn[nH]2)cc2c(C)nc(N)nc21`
stdout: inactive

stdin: Next entry: CC1(C)CC2=C3C=CC4C5(C)CCC(O)C(C)(C)C5CCC4(C)C3(C)CCC2(C)C(O)C1 (stereo not drawn)
stdout: active

stdin: Next entry: C[C@H](NC(c1cccc(C[P+](=O)O)c1)[C@H](C)O)c1ccc(Cl)c(Cl)c1 (stereo partly drawn)
stdout: inactive

stdin: Next entry: `CC(=O)O[C@H]1[C@H](O[C@H]2[C@@H]3C=CO[C@@H](O[C@@H]4O[C@H](CO)[C@@H](O)[C@H](O)[C@H]4O)[C@@H]3[C@@]3(CO)O[C@@H]23)O[C@@H](C)[C@H](OC(=O)/C=C/c2ccccc2)[C@H]1OC(=O)/C=C/c1ccccc1`
stdout: inactive

stdin: Next entry: `C[C@H]1CC(=O)Nc2cccc(-c3cnn(C(C)(C)C)c3)c2N1`
stdout: inactive

stdin: Next entry: `CN(C)C/C=C/C(=O)Nc1cccc(C(=O)Nc2ccc(Nc3nccc(-c4cccnc4)n3)cc2)c1`
stdout: inactive
